Target: CED-9 protein (residues 1-251) (Caenorhabditis elegans)
Construct: made in house
Sequence (P41958 1-251): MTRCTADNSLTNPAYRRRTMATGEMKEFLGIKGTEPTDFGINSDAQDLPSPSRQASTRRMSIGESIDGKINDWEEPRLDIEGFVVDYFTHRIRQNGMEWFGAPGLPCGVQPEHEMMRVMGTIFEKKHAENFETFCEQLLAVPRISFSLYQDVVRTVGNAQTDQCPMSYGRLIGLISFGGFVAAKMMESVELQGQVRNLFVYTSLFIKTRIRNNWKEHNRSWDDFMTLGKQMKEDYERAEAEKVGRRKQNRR
Experiment: GST-EGL-1 fragment/mutant interaction with CED-9 (GST-mediated pull-down assay)
Assay type: binding, C. elegans
Settings: GST-EGL-1 fragments or mutants; in vitro
Where no end group is shown, it is not given here.
MEASURED_METRIC: interaction with (binding to) CED-9

mut4: EGL-1 quadruple mutant G55E/L58A/F65A/M69A (SEISSIGYEIESKAAAMCDDADAQAMSYSAHASDRSLFHRLLD; also: fused to a dimerising Fc or GST (left off)) ... failed to bind to CED-9
mut2: EGL-1 double mutant G55E/F65A (SEISSIGYEIESKLAAMCDDADAQMMSYSAHASDRSLFHRLLD; not fully specified) ... failed to bind to CED-9
